# System: MIA PaCa-2
# Assay remarks: Antiproliferative activity against human MIA PaCa-2 cells harboring KRAS G12C mutant incubated for 72 hrs by CCK8 assay
# Format: functional, cell-based
# Reported conditions: MIA PaCa-2, 72 h

{"columns": ["Smiles repr", "IC50 (µM)"],
 "data": [
  ["CCNS(=O)(=O)Nc1cccc(Cn2cnc3c(F)c(Nc4ccc(I)cc4F)c(C(=O)NOCCO)cc32)c1F", 0.043],
  ["CNS(=O)(=O)Nc1cccc(Cn2cnc3c(F)c(Nc4ccc(C5CC5)cc4F)c(C(=O)NOCCO)cc32)c1F", 0.015],
  ["CCNS(=O)(=O)Nc1cccc(Cn2cnc3c(F)c(Nc4ccc(C5CC5)cc4F)c(C(=O)NOCCO)cc32)c1Cl", 0.031],
  ["CCNS(=O)(=O)Nc1cccc(Cn2cnc3c(F)c(Nc4ccc(C)cc4F)c(C(=O)NOCCO)cc32)c1F", 0.219]
]}
